Origin of the recorded values: patent US20260209301A1

Molecular target: T1, human GalR2 (human, UniProt O43603 1-387)
T1 sequence (looked up): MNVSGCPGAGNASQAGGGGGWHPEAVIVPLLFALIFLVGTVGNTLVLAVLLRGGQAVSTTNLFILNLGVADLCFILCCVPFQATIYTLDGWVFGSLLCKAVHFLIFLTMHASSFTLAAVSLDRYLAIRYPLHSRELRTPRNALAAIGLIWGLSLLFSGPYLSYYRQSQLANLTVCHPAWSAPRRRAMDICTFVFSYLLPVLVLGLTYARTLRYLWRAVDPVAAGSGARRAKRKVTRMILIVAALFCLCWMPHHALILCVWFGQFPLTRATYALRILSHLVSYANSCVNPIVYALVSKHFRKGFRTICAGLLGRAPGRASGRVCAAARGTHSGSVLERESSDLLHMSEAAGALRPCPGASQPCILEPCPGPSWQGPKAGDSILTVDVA
Assay: cell-based or functional assay
No end group written: not given here.
readout-label: Beta Arrestin pEC50 (pEC50)

>>> df
                                     binder        readout_label  experimental_value
0            GWTLNSAGYLLGPHA [Galanin 1-15]  Beta Arrestin pEC50                 7.2
1             GWTLNSAGYLLGPQPPGFSPFR [M617]  Beta Arrestin pEC50                 8.4
2       RGRGNWTLNSAGYLLGPVLPPPALALA [M1145]  Beta Arrestin pEC50                 7.9
3  WTLNSAGYLLGPHAIDNHRSFHDKYGLA [Galanin 2-29 (rat)]  Beta Arrestin pEC50                 8.1
4  WTLNSAGYLLGPKKKKK (also: PEG (dPEG24) on one lysine, site not given here) [Nax409-9]  Beta Arrestin pEC50                 5.8
5                 WTLNSAGYLL [Galanin 2-11]  Beta Arrestin pEC50                 6.4
